Taken from the supplement of paper PMC10567573.

B1: TSN (parent)
chain: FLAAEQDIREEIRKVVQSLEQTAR

Variants of: B1
Experiment: protein stability index of a GFP-peptide fusion (GPS, HEK-293T) (PSI 1-6); higher = more stable;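 further: lentivirally expressed fusions sorted by FACS into six bins by GFP to DsRed ratio, PSI derived from sequencing read proportions per bin multiplied by bin number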
Conditions: c terminus: a fixed tail appended
property: protein stability index
API note: the answer field is a bare number with no unit suffix.

E5Y
1.76
A23S
1.8
R13A
1.94

Ask: Which protein stability index is reported for this variant? "R24A"
Result: 2.26

Ask: Which protein stability index is reported for this variant? "R24F"
Result: 2.07
